# protocol_description: soluble fraction after stress (log2 fold change); higher = more stays soluble; pooled small domains, quantitative proteomics
# assay_conditions: stress: 50 degC
Would you mind telling me the reported soluble fraction (log2) of each entry?
Kindly provide the number alone.

## Task Item `HMRDYKTHLQEVLQSKGEVNIWYKLIDEKGPDHNKKFVMQVGIDSKILGFGEGKSKKEAEQVAARKALDNI` has what recorded soluble fraction (log2)?
## Result -0.118

## Task Lookup `HMGESYGPVRRGETLWSIAEKVKPAGVSTQKELAAIYAANPQAFIRGDINLLKAGAELRLPSPEAL`
## Result 0.172

## Task Lookup `HMGSPKLVIKNGQVDYQVLKKEKLDLLELTSLLRGQNTFSIREIEYAIIEPNGVITVIKKPEYQSVVKGDL`
## Result -0.239

## Task Lookup `HMGSEEMLGALGVVERATDDGDWWIAVHGEHWRARSAQALVPGDRVRVARIDGLTLTVTPIA`
## Result -0.0957

## Task Lookup `HMEDDRMLVWFFRKSIQNGAQSEAEGRPIFEGKDYVHIQQPGERDYIEREAHQGDIGRWPRHWQAYQEGR`
## Result -0.329

* * *

# protocol_description: soluble fraction after stress (log2 fold change); higher = more stays soluble; pooled small domains, quantitative proteomics
# assay_conditions: stress: 50 degC
metric: soluble fraction (log2)
Kindly provide the number alone.

## Task Item `HMSLDTASDKELLGLIVSEPIATRVLDAFRTLDATLFRTTPAELAAAAGVSSEHAQKIKAVAEIAARMLKP` has what recorded soluble fraction (log2)?
## Result -0.377

## Task Lookup `HMTPELTAEEREVLSLLGDEPRTLAELIAASGRDYAALSVLLMGLELSQAVRQLPGNRYERF`
## Result -0.934

## Task Lookup `HMLYITEIQKKIMDAFLVVANESNSGTRITMNEIANKVRMTPQAIYRKHFKSVIEISDTIRD`
## Result -0.531

## Task Lookup `HMTNVYSLIGKRGIVVEDIDWQKGTGQVKIDGELWSVKTNEQINISKGTEVEVENIEGVKVFVKPI`
## Result 0.09

## Task Lookup `HMSDQTYVKDPETGEIFRVHKRVWETGEFWRDPVWGNILGGVERGSELERLLREEGWRPLQQSLEGFPEQ`
## Result -0.104

## Task Lookup `HMATPKYMELVRWINEQIESKNLVPGQKMYSENTLKEMFGVSRQTVRHAIGVLENEGVIRRIQGSGTYIN`
## Result -0.829

## Task Lookup `HMFAQDKKFITYKVKEGETVQSISKALSITPYDLLKLNPDIKDNVSQDDLLIIPNKQYDPLGDI`
## Result 0.144

## Task Lookup `HMTGIESVKPSSDFTVEGNRIVAGDAEVEVYDLAGRKVNNNNLTTGVYIAKIAGSAESVKVFV`
## Result 0.0109

## Task Lookup `HMETMSYAEFNAIRIGKAKLMLADPSLKIWEISEAVGYTDTAHFARTFKKLEGMSANEYRNSL`
## Result -1.12

## Task Lookup `HMTLDEFTDLMNLFKTGHIEQKPVILYGYNYWTSLKSWFEFNNMKFPEMYIDGIINTVDEFKILYNKIF`
## Result -0.982

## Task Lookup `HMEIESAHAQVLGVREIAASGATQHWIAFRFSDGHQRELLATPSQADVIFRGQQGVVHFAGDRLTGWIPE`
## Result -0.191

## Task Lookup `HMQIYLTPEQFKIIDFMEQMGKITVKDVMDILNIPKRTAQLHLQKLKTLKMIAQTGKGPSSAYLL`
## Result -0.959

## Task Lookup `HMKKASLSTVEKKLMKQNYSNDTMENRLARVESYMFGTVFSSDDTQTRIDRISSAYNAQKSS`
## Result 0.142

## Task Lookup `HMGQVEVPDVVGMTQERAITTLTEAKLVAQIQLTPADVAKGLVAAQSPRAGLKIGEGSFVTIEVSTGPVI`
## Result 0.0948

## Task Lookup `HMESWNRARILEKIRELHAQGVALNNASMRRLGYRGMMEAAARPQNFGSWEAAVRAAGIDYDRV`
## Result -0.00832

## Task Lookup `HMSMTLSVLDDVRGLSESRRKQLFHSFGSIKKLREQSKETLMSIPYLPEKVALELYDKLHEE`
## Result -0.218

## Task Lookup `HMVILPGEKMVVKIVQPGKEKGQGVGYLADGTMIVVDSGDKMIGQDVPTEITRVFQTVAGKMLFAVPVD`
## Result -0.426

## Task Lookup `HMIPDLPAVGVNVHKERRRQQLSLDALAAGSGVSKAMLSQIESGKVNPTVATMWKIAHALGVDFELLLKGE`
## Result -0.154

## Task Lookup `HMDIDGVSENGRLILAALDKEALDFDTLAAETGIQESRLRTELTLLEIRKLIMKLPGQRYRLI`
## Result 0.0016
